Listed compounds paired with reported TGI
System: MDA-MB-435
Measurement Description: NCI tumour cell line growth inhibition, 48 h

{"Compound": "C=CCC1(O)c2cccc(O)c2C(=O)c2c(O)cccc21", "TGI": "> 100 µM"}
{"Compound": "Cc1cc(S(=O)(=O)Nc2nc(N)n(C)n2)c(S)cc1Cl", "TGI": "> 10 µM"}
{"Compound": "CC[n+]1[b-](C(C)(C)C)n(/N=C(\\C)C(C)(C)C)[b-](C(C)(C)C)[n+]1CC", "TGI": "> 100 µM"}
{"Compound": "CCCCNc1nc(SC)nc2nc[nH]c12", "TGI": "> 100 µM"}
{"Compound": "N#Cc1c(N2CCOCC2)ncn(-c2ccccc2)c1=O", "TGI": "> 100 µM"}
{"Compound": "C#C[C@]1(O)CC[C@H]2[C@@H]3CC=C4c5nc(Nc6ccc(OC)cc6OC)sc5CC[C@]4(C)[C@H]3CC[C@@]21C", "TGI": "4.39 µM"}
{"Compound": "CSC(=S)NN=C1CCCCC1", "TGI": "> 100 µM"}
{"Compound": "CC1=CC(C)C(O)C(C)/C=C/C(O)C/C=C(/C)C(=O)CC(O)C(C)\\C=C/C=C/C=C\\C(=O)NC2=C(O)c3cc(C)c(O)c(c3C(=O)C2=O)C1=O (stereo not given)", "TGI": "> 100 µM"}
{"Compound": "COc1ccc(OC)c(C2CCc3cnc4nc(N)nc(N)c4c3C2)c1 (stereo not given)", "TGI": "> 100 µM"}
{"Compound": "Cn1ncc2c(NCCc3ccccc3)nc(Cl)nc21", "TGI": "44.9 µM"}

Reference source: PubChem BioAssay (NCI)
